# Test system: OAT1/3
# protocol_notes: Bottom-up IVIVE of CLint,sec, CLsec and CLr, relative expression factor (REF) approach
# Parameters: species or system human
# cond: REF approach

>  <query_smiles>
O=C(NC[C@H]1CN(c2ccc(N3CCOCC3=O)cc2)C(=O)O1)c1ccc(Cl)s1

>  <tgt>
OAT1/3

>  <CLint,sec Predicted 1% HSA, L/h>
41.7

$$$$
>  <query_smiles>
Nc1ncnc2c1ncn2CCOCP(=O)(O)O

>  <tgt>
OAT1/3

>  <CLint,sec Predicted 1% HSA, L/h>
57.8

$$$$
>  <query_smiles>
CC(C)c1nc(N(C)S(C)(=O)=O)nc(-c2ccc(F)cc2)c1/C=C/[C@@H](O)C[C@@H](O)CC(=O)O

>  <tgt>
OAT1/3

>  <CLint,sec Predicted 1% HSA, L/h>
13.6

$$$$
>  <query_smiles>
CCCc1nc(C(C)(C)O)c(C(=O)O)n1Cc1ccc(-c2ccccc2-c2nnn[nH]2)cc1

>  <tgt>
OAT1/3

>  <CLint,sec Predicted 1% HSA, L/h>
85.2

$$$$
>  <query_smiles>
Cc1ncc(CO)c(C(=O)O)c1O

>  <tgt>
OAT1/3

>  <CLint,sec Predicted 1% HSA, L/h>
7.85

$$$$

---

# Test system: OAT1/3
# protocol_notes: Bottom-up IVIVE of CLint,sec, CLsec and CLr, relative activity factor (RAF) approach
# Set-up: species or system human
result_type: CLint,sec Predicted 0% HSA (L/h)

>  <query_smiles>
CC(C)c1nc(N(C)S(C)(=O)=O)nc(-c2ccc(F)cc2)c1/C=C/[C@@H](O)C[C@@H](O)CC(=O)O

>  <result_number>
34.3

$$$$
>  <query_smiles>
Cc1ncc(CO)c(C(=O)O)c1O

>  <result_number>
8.79

$$$$
>  <query_smiles>
CCCc1nc(C(C)(C)O)c(C(=O)O)n1Cc1ccc(-c2ccccc2-c2nnn[nH]2)cc1

>  <result_number>
34.2

$$$$
>  <query_smiles>
O=C(NC[C@H]1CN(c2ccc(N3CCOCC3=O)cc2)C(=O)O1)c1ccc(Cl)s1

>  <result_number>
34.1

$$$$

---

# tgt: human serum albumin (Homo sapiens, UniProt P02768)
# Sequence (P02768 25-609): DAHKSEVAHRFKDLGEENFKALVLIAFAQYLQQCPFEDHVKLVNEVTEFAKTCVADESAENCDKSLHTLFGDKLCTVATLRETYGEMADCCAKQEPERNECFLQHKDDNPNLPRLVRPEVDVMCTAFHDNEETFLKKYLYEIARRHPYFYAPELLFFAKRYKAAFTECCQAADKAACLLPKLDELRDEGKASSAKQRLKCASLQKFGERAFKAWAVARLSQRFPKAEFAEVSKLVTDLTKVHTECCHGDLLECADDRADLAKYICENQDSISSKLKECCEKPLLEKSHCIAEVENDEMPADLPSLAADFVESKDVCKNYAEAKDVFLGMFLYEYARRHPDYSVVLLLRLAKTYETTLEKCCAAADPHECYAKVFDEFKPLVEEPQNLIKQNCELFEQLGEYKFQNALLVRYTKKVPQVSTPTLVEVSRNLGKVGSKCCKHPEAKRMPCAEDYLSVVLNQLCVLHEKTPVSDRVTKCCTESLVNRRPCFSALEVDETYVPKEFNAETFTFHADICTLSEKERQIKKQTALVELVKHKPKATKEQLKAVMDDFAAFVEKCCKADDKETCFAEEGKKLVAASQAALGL
# protocol_notes: Extent of albumin binding: high throughput equilibrium dialysis (fu,inc, Kd)
# Type: in vitro ADME
# cond: human, 0.5% HSA in DPBS, 0.5% HSA, mean ± S.D.; read-out: fu,inc
result_type: fraction unbound at 6 h

>  <query_smiles>
Cc1ncc(CO)c(C(=O)O)c1O

>  <result_type>
fraction unbound at 6 h

>  <result>
0.4

$$$$

---

# tgt: UniProtKB Q4U2R8
# Sequence (Q4U2R8 whole entry): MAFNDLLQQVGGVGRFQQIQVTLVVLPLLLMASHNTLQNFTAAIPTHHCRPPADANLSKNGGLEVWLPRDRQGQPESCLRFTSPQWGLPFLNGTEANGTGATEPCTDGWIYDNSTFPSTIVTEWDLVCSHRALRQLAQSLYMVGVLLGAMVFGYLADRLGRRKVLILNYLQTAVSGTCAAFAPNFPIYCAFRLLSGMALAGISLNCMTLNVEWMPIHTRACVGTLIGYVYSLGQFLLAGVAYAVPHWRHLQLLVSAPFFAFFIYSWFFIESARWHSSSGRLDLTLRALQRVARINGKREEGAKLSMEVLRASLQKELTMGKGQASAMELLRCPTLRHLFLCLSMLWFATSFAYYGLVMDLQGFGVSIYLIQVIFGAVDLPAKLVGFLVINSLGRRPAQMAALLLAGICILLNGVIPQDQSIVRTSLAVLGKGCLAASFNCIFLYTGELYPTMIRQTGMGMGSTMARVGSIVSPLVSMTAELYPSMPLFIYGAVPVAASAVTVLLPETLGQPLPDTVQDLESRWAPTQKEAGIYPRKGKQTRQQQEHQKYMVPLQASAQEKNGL
# protocol_notes: OAT1 uptake study in ciPTEC-OAT1
# cond: eq 4 fitted to CLint,u,active, Kd,m fixed from OAT3 data, mean ± S.D.

>  <compound>
Cc1ncc(CO)c(C(=O)O)c1O [4-pyridoxic acid]

>  <unit_of_measurement>
pmol/min/mg

>  <Vb,max OAT1, Active Uptake Only>
213

$$$$
>  <compound>
Nc1ncnc2c1ncn2CCOCP(=O)(O)O [adefovir]

>  <unit_of_measurement>
pmol/min/mg

>  <Vb,max OAT1, Active Uptake Only>
3055

$$$$
>  <compound>
CCCc1nc(C(C)(C)O)c(C(=O)O)n1Cc1ccc(-c2ccccc2-c2nnn[nH]2)cc1 [olmesartan]

>  <unit_of_measurement>
pmol/min/mg

>  <Vb,max OAT1, Active Uptake Only>
72.7

$$$$
>  <compound>
CCCCNc1cc(C(=O)O)cc(S(N)(=O)=O)c1Oc1ccccc1 [bumetanide]

>  <unit_of_measurement>
pmol/min/mg

>  <Vb,max OAT1, Active Uptake Only>
447

$$$$

---

# Tested on: OAT1/3
# protocol_notes: Bottom-up IVIVE of CLint,sec, CLsec and CLr, relative expression factor (REF) approach
# Set-up: species or system human
# cond: REF approach
Note to self: values exactly at 7 L/h are yes (1). So CLint,sec Predicted 0% HSA at or above 7 L/h is yes (1), below is no (0).

>  <compound>
CCCc1nc(C(C)(C)O)c(C(=O)O)n1Cc1ccc(-c2ccccc2-c2nnn[nH]2)cc1 [olmesartan]

>  <tgt>
OAT1/3

>  <discrete_label>
yes (1)

$$$$
>  <compound>
Nc1ncnc2c1ncn2CCOCP(=O)(O)O [adefovir]

>  <tgt>
OAT1/3

>  <discrete_label>
yes (1)

$$$$
>  <compound>
O=C(NC[C@H]1CN(c2ccc(N3CCOCC3=O)cc2)C(=O)O1)c1ccc(Cl)s1 [rivaroxaban]

>  <tgt>
OAT1/3

>  <discrete_label>
no (0)

$$$$
>  <compound>
Cc1ncc(CO)c(C(=O)O)c1O [4-pyridoxic acid]

>  <tgt>
OAT1/3

>  <discrete_label>
no (0)

$$$$

---

Here the recorded CLint,sec Predicted 4% HSA is given for each entry.
# Tested on: OAT1/3
# protocol_notes: Bottom-up IVIVE of CLint,sec, CLsec and CLr, relative expression factor (REF) approach
# Parameters: species or system human
# cond: REF approach

>  <molecule>
O=C(NC[C@H]1CN(c2ccc(N3CCOCC3=O)cc2)C(=O)O1)c1ccc(Cl)s1 [rivaroxaban]

>  <CLint,sec Predicted 4% HSA, L/h>
67.0

$$$$
>  <molecule>
Cc1ncc(CO)c(C(=O)O)c1O [4-pyridoxic acid]

>  <CLint,sec Predicted 4% HSA, L/h>
12.6

$$$$
>  <molecule>
CC(C)c1nc(N(C)S(C)(=O)=O)nc(-c2ccc(F)cc2)c1/C=C/[C@@H](O)C[C@@H](O)CC(=O)O [rosuvastatin]

>  <CLint,sec Predicted 4% HSA, L/h>
17.7

$$$$
>  <molecule>
Nc1ncnc2c1ncn2CCOCP(=O)(O)O [adefovir]

>  <CLint,sec Predicted 4% HSA, L/h>
44.7

$$$$
>  <molecule>
CCCc1nc(C(C)(C)O)c(C(=O)O)n1Cc1ccc(-c2ccccc2-c2nnn[nH]2)cc1 [olmesartan]

>  <CLint,sec Predicted 4% HSA, L/h>
284

$$$$

---

Reported values of CLint,sec Observed for individual entries
# protocol_notes: Observed in vivo (clinical) renal, secretion and intrinsic secretion clearance
# cond: in vivo, back-calculated from clinical data

>  <query_smiles>
CCCc1nc(C(C)(C)O)c(C(=O)O)n1Cc1ccc(-c2ccccc2-c2nnn[nH]2)cc1

>  <CLint,sec Observed>
229 L/h

$$$$
>  <query_smiles>
Nc1ncnc2c1ncn2CCOCP(=O)(O)O

>  <CLint,sec Observed>
10.8 L/h

$$$$
>  <query_smiles>
Cc1ncc(CO)c(C(=O)O)c1O

>  <CLint,sec Observed>
340 L/h

$$$$
>  <query_smiles>
O=C(NC[C@H]1CN(c2ccc(N3CCOCC3=O)cc2)C(=O)O1)c1ccc(Cl)s1

>  <CLint,sec Observed>
41.2 L/h

$$$$

---

# Tested on: OAT1/3
# protocol_notes: Bottom-up IVIVE of CLint,sec, CLsec and CLr, relative activity factor (RAF) approach
# Parameters: species or system human
Catalogue of compounds with associated CLint,sec Predicted 1% HSA
result_type: CLint,sec Predicted 1% HSA (L/h)

>  <compound>
Cc1ncc(CO)c(C(=O)O)c1O [4-pyridoxic acid]

>  <result_number>
22.1

$$$$
>  <compound>
CC(C)c1nc(N(C)S(C)(=O)=O)nc(-c2ccc(F)cc2)c1/C=C/[C@@H](O)C[C@@H](O)CC(=O)O [rosuvastatin]

>  <result_number>
68.3

$$$$
>  <compound>
O=C(NC[C@H]1CN(c2ccc(N3CCOCC3=O)cc2)C(=O)O1)c1ccc(Cl)s1 [rivaroxaban]

>  <result_number>
210

$$$$
>  <compound>
CCCc1nc(C(C)(C)O)c(C(=O)O)n1Cc1ccc(-c2ccccc2-c2nnn[nH]2)cc1 [olmesartan]

>  <result_number>
355

$$$$

---

Entries and their Vb,max OAT3, Active and Passive Uptake
# tgt: OAT3 (Homo sapiens, UniProt Q8TCC7)
# Sequence (Q8TCC7 whole entry): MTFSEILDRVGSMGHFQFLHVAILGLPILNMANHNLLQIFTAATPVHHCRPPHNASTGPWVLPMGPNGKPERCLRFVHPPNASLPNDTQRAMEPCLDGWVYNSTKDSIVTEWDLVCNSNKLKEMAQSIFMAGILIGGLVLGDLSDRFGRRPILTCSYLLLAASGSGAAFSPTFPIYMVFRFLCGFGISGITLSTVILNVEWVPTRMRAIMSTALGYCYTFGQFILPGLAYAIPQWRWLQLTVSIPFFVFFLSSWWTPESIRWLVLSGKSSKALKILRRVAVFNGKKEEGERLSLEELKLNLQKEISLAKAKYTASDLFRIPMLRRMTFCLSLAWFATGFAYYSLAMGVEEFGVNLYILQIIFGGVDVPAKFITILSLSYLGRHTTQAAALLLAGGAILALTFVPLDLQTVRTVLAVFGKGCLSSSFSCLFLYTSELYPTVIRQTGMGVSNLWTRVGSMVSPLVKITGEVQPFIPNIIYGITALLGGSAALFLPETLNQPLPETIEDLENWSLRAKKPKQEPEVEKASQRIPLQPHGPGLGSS
# protocol_notes: OAT3 uptake study in ciPTEC-OAT3
# cond: eq 4 fitted to CLint,u, mean ± S.D.

>  <compound>
Cc1ncc(CO)c(C(=O)O)c1O [4-pyridoxic acid]

>  <unit_of_measurement>
pmol/min/mg

>  <Vb,max OAT3, Active and Passive Uptake>
53.1

$$$$
>  <compound>
CCC(CC)O[C@@H]1C=C(C(=O)O)C[C@H](N)[C@H]1NC(C)=O [oseltamivir carboxylate]

>  <unit_of_measurement>
pmol/min/mg

>  <Vb,max OAT3, Active and Passive Uptake>
-1150

$$$$
>  <compound>
NS(=O)(=O)c1cc(C(=O)O)c(NCc2ccco2)cc1Cl [furosemide]

>  <unit_of_measurement>
pmol/min/mg

>  <Vb,max OAT3, Active and Passive Uptake>
478

$$$$

---

# tgt: human serum albumin (Homo sapiens)
# protocol_notes: Extent of albumin binding: high throughput equilibrium dialysis (fu,inc, Kd)
# Assay type: in vitro ADME
# cond: human, 1% human serum albumin in DPBS, 1% HSA, equilibrium dialysis 37 °C 6 h, mean ± SD; read-out: fu,inc (1%)
Label true (1) when fraction unbound at 6 h is strictly below 0.4; at or above that, label false (0).

>  <compound>
CC(C)c1nc(N(C)S(C)(=O)=O)nc(-c2ccc(F)cc2)c1/C=C/[C@@H](O)C[C@@H](O)CC(=O)O [rosuvastatin]

>  <discrete_label>
false (0)

$$$$
>  <compound>
CCCCNc1cc(C(=O)O)cc(S(N)(=O)=O)c1Oc1ccccc1 [bumetanide]

>  <discrete_label>
true (1)

$$$$
>  <compound>
CCC(CC)O[C@@H]1C=C(C(=O)O)C[C@H](N)[C@H]1NC(C)=O [oseltamivir carboxylate]

>  <discrete_label>
false (0)

$$$$
>  <compound>
Nc1ncnc2c1ncn2CCOCP(=O)(O)O [adefovir]

>  <discrete_label>
false (0)

$$$$
>  <compound>
O=C(NC[C@H]1CN(c2ccc(N3CCOCC3=O)cc2)C(=O)O1)c1ccc(Cl)s1 [rivaroxaban]

>  <discrete_label>
true (1)

$$$$
>  <compound>
CCCc1nc(C(C)(C)O)c(C(=O)O)n1Cc1ccc(-c2ccccc2-c2nnn[nH]2)cc1 [olmesartan]

>  <discrete_label>
true (1)

$$$$
>  <compound>
Cc1ncc(CO)c(C(=O)O)c1O [4-pyridoxic acid]

>  <discrete_label>
true (1)

$$$$

Attribution: paper PMC11372837
